- Test system: SK-BR-3
- method.description: Inhibition of cells growth by colorimetric assay (SRB)
- assay.context: Homo sapiens, SK-BR-3, 48 h, read-out: LC50 SK-BR3
Lab note - cut at 0.6 µM for CC50: 1 (yes) if strictly below, 0 (no) if not.

INSERT INTO results (compound, category_label) VALUES
  ('COc1c(C)cc2c(c1O)[C@H]1N[C@@H](C2)[C@H](C#N)N2C1[C@@H]1SCC(NC(=O)C(F)(F)F)C(=O)OC[C@H]2c2c3c(c(C)c(OC(C)=O)c21)OCO3 (some centres unmarked)', '1 (yes)'),
  ('COc1c(C)cc2c(c1O)[C@H]1N[C@@H](C2)[C@H](C#N)N2C1[C@@H]1SCC(NC(C)=O)C(=O)OC[C@H]2c2c3c(c(C)c(OC(C)=O)c21)OCO3 (some centres unmarked)', '1 (yes)'),
  ('CCCCCCCCCCCCCCCC(=O)NC1CS[C@@H]2c3c(OC(C)=O)c(C)c4c(c3[C@H](COC1=O)N1C2[C@@H]2N[C@@H](Cc3cc(C)c(OC)c(O)c32)[C@@H]1C#N)OCO4 (some centres unmarked)', '0 (no)'),
  ('C=CCN1[C@@H]2c3c(cc(C)c(OC)c3O)C[C@H]1[C@H](C#N)N1C2[C@@H]2SCC(NC(=O)CCCCCCCCCCCCCCC)C(=O)OC[C@H]1c1c3c(c(C)c(OC(C)=O)c12)OCO3 (some centres unmarked)', '0 (no)'),
  ('COC1=C(C)C(=O)C2=C(C1=O)[C@@H]1C3[C@@H]4SC[C@]5(NCCc6c5[nH]c5ccccc65)C(=O)OC[C@@H](c5c6c(c(C)c(OC(C)=O)c54)OCO6)N3[C@@H](C#N)[C@H](C2)N1C (some centres unmarked)', '0 (no)');

* * *

Each record here notes measured CC50.
- System: PANC-1
- method.description: Inhibition of cells growth by colorimetric assay (SRB)
- assay.context: Homo sapiens, PANC-1, 48 h, read-out: PANC-1 LC50
measurement.kind: CC50 (µM)

INSERT INTO assay_data (molecule, target_of_assay, measurement_kind, readout_unit, value) VALUES
  ('C=CCN1[C@@H]2c3c(cc(C)c(OC)c3O)C[C@H]1[C@H](C#N)N1C2[C@@H]2SC[C@]3(NCCc4c3[nH]c3ccc(C)cc43)C(=O)OC[C@H]1c1c3c(c(C)c(OC(C)=O)c12)OCO3 (stereo partly shown) [compound 58]', 'PANC-1', 'CC50', 'µM', 12.4),
  ('COc1c(C)cc2c(c1O)[C@H]1N[C@@H](C2)[C@H](C#N)N2C1[C@@H]1SCC(=O)C(=O)OC[C@H]2c2c3c(c(C)c(OC(C)=O)c21)OCO3 (stereo partly shown) [compound 42]', 'PANC-1', 'CC50', 'µM', 5.27),
  ('C=CCN1[C@@H]2c3c(cc(C)c(OC)c3O)C[C@H]1[C@H](C#N)N1C2[C@@H]2SC[C@]3(NCCc4cc(O)c(OC)cc43)C(=O)OC[C@H]1c1c3c(c(C)c(OC(=O)/C=C/c4ccccc4)c12)OCO3 (stereo partly shown) [compound 49]', 'PANC-1', 'CC50', 'µM', 3.92),
  ('COc1c(C)cc2c(c1O)[C@H]1N[C@@H](C2)[C@H](O)N2C1[C@@H]1SC[C@]3(NCCc4c3[nH]c3ccc(O)cc43)C(=O)OC[C@H]2c2c3c(c(C)c(OC(C)=O)c21)OCO3 (stereo partly shown) [compound 65]', 'PANC-1', 'CC50', 'µM', 4.25);
